Tested on: Tov-21-G
assay.details: Primary qHTS to identify gynecologic anti-cancer compounds using libraries of approved drugs and bioactive compounds (AID 1345084); note: % is set by controls: 0 for no effect and ±100 for the full control effect; nearly all actives have a fitted effect of over 55% in size
experimental.setup: Gynecologic cancer cell panel viability, ATPlite luminescence, 48 h; series mostly up to 57.5 µM
Results filed as inconclusive are left out. Active and inactive are the calls of the source. Calls come from the whole dose curve; as a rule, active = well fitted cell-killing curve with a large enough effect; inconclusive = small, poorly fitted or top-dose-only effect, or effect the other way; inactive = flat fitted curve, though single readings scatter.
parameter.measured: activity change, negative = cytotoxicity

>  <compound>
CC12CC34CC(O)C5C(CO)(CO)CC(=O)CC5(C)C3CC1C2C4 (configuration not stated)

>  <parameter.measured>
activity change, negative = cytotoxicity

>  <obs.value>
inactive

$$$$
>  <compound>
CC1OC(OC2C(OC3C(O[C@H]4CC[C@@]5(C)C(CC[C@]6(C)C5C(=O)CC5=C7CC(C)(C)CC(O)[C@]7(C)CC[C@]56C)C4(C)C)OC(C(=O)O)C(O)C3O)OCC(O)C2O)C(O)C(O)C1O (some centres not stated)

>  <parameter.measured>
activity change, negative = cytotoxicity

>  <obs.value>
4.68% [at 11.6 µM] (inactive)

$$$$
>  <compound>
COC(=O)[C@H](Cc1cccc(C(=N)N)c1)[C@@H](C)NC(=O)c1ccc(-c2cc[n+]([O-])cc2)cc1

>  <parameter.measured>
activity change, negative = cytotoxicity

>  <obs.value>
inactive

$$$$
>  <compound>
Nc1ncnc2c1C(=O)N(c1ccc(C3CCC(CC(=O)O)CC3)cc1)CCO2 (configuration not stated)

>  <parameter.measured>
activity change, negative = cytotoxicity

>  <obs.value>
inactive

$$$$
>  <compound>
C[C@]1(OC(=O)/C=C\c2ccc(O)cc2)C[C@@H](O)[C@]2(O)C=CO[C@@H](O[C@@H]3O[C@H](CO)[C@@H](O)[C@H](O)[C@H]3O)C12 (some centres not stated)

>  <parameter.measured>
activity change, negative = cytotoxicity

>  <obs.value>
inactive

$$$$
>  <compound>
CCC1=C(C)C(=O)C(C)CC12C(=O)CCC2C(=O)O (configuration not stated)

>  <parameter.measured>
activity change, negative = cytotoxicity

>  <obs.value>
inactive

$$$$
>  <compound>
OC[C@@]1(O)CO[C@@H](OC[C@H]2O[C@@H](Oc3ccccc3)[C@H](O)[C@@H](O)[C@@H]2O)[C@@H]1O

>  <parameter.measured>
activity change, negative = cytotoxicity

>  <obs.value>
inactive

$$$$

---

target: Luciferin 4-monooxygenase (Photinus pyralis) (UniProt P08659)
assay.details: Primary firefly luciferase (FLuc) qHTS assay for identification of artifact compounds. (AID 1845220);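 note: plate controls were DMSO vehicle for no effect and no enzyme for full effect; nearly all actives have a fitted effect of over 60% in size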
experimental.setup: purified firefly luciferase, luminescence, 5 min; series mostly up to 54.1 µM
Description: PI: Alexander Tropsha Ph.D. UNC Eshelman School of Pharmacy University of North Carolina, Chapel Hill, North Carolina Hits from high-throughput screening (HTS) of chemical libraries are often false positives due to their interference with the assay detection technology. […] Using these curated datasets, we developed and validated several Quantitative Structure-Interference Relationship (QSIR) models to predict nuisance behavior. […] 6; Detection; Luminescence, ViewLux microplate reader. […]
Calls of active or inactive are those of the source. The call rests on the fitted dose curve; in most records, active means well fitted inhibition curve with a large enough effect; inconclusive means small, poorly fitted or top-dose-only effect; inactive means flat fitted curve, though single readings scatter.
parameter.measured: activity change, negative = inhibition

>  <compound>
COC(=O)c1ccccc1O[C@@H]1O[C@H](CO[C@@H]2OC[C@@H](O)[C@H](O)[C@H]2O)[C@@H](O)[C@H](O)[C@H]1O

>  <parameter.measured>
activity change, negative = inhibition

>  <obs.value>
inactive

$$$$
>  <compound>
COc1c(O[C@@H]2O[C@H](CO)[C@@H](O)[C@H](O)[C@H]2O)c(CCC(=O)O)cc2ccoc12

>  <parameter.measured>
activity change, negative = inhibition

>  <obs.value>
inactive

$$$$
>  <compound>
C[C@@H]1O[C@@H](OC2C(O[C@H]3[C@H](O[C@H]4CC[C@@]5(C)C(CC[C@]6(C)C5CC=C5C7CC(C)(C)CC(O)[C@]7(C)CC[C@]56C)C4(C)C)O[C@H](C(=O)O)[C@@H](O)[C@@H]3O)OC(CO)C(O)C2O)[C@H](O)[C@H](O)[C@H]1O (stereo partly drawn)

>  <parameter.measured>
activity change, negative = inhibition

>  <obs.value>
2.46% [at 11.6 µM] (inactive)

$$$$
